This collection of values is drawn from patent US20260008995A1.

Tested on: Strain MNH04863
Assay: antibiotic susceptibility testing, disk diffusion test
Format: cell-based, Christensenella sp.
Details: result in words
QUANTITY NAME: susceptibility of strain MNH04863 to the antibiotic

Observe how each entry below is paired with its result.
| COMPOUND | OBSERVED RESULT |
| --- | --- |
| CC1(C)S[C@@H]2[C@H](NC(=O)[C@H](N)c3ccccc3)C(=O)N2[C@H]1C(=O)O | resistance |
| CO/N=C(\C(=O)N[C@@H]1C(=O)N2C(C(=O)O)=C(CSc3nc(=O)c(=O)[nH]n3C)CS[C@H]12)c1csc(N)n1 | sensitive |
| O=C(O)c1cn(C2CC2)c2cc(N3CCNCC3)c(F)cc2c1=O | resistance |
| O=C(N[C@H](CO)[C@H](O)c1ccc([N+](=O)[O-])cc1)C(Cl)Cl | sensitive |
| CC[C@H]1OC(=O)[C@H](C)[C@@H](O[C@H]2C[C@@](C)(OC)[C@@H](O)[C@H](C)O2)[C@H](C)[C@@H](O[C@@H]2O[C@H](C)C[C@H](N(C)C)[C@H]2O)[C@](C)(O)C[C@@H](C)C(=O)[C@H](C)[C@@H](O)[C@]1(C)O [Erythromycin (ERM), Erythromycin] | sensitive |

Now take the following compound into account.
Asked: Give susceptibility of strain MNH04863 to the antibiotic for CCC[C@@H]1C[C@@H](C(=O)N[C@@H]([C@H]2O[C@H](SC)[C@H](O)[C@@H](O)[C@H]2O)[C@@H](C)O)N(C)C1
Given back: sensitive
